- Test system: Candida albicans
- PARTICULARS: Concentration 32 ug.mL-1; ASSAY_TEST Inhibition of Fungal Growth; detection method Absorption (OD530)
- Description: Antifungal activity against Candida albicans ATCC 90028 (CO-ADD:FG_001); MIC in YNB media using NBS plates, by OD630
Measured potencies and affinities stand elsewhere.
Given measured Inhibition, output 1.0 if it is greater than or equal to 5% and 0.0 if not.

# MOLECULE SMILES, ANSWER LABEL
data = [
    ("C=Cc1ccc(CN(c2ccc(F)cc2)S(=O)(=O)c2ccc3nnc(C)n3c2)cc1", 0.0),
    ("Cc1c(Cl)cccc1-n1ccn2c(=O)n(Cc3cccc(F)c3)nc2c1=O", 1.0),
    ("O=C(Cn1nc2c(N3CCOCC3)nccn2c1=O)Nc1ccccc1Br", 0.0),
    ("COc1ccc(OC)c(NC(=O)Cn2nc3c4cc(-c5ccc(C)c(C)c5)nn4ccn3c2=O)c1", 1.0),
    ("COc1cccc(CN(c2cccc(F)c2)S(=O)(=O)c2ccc3nnc(C)n3c2)c1", 0.0),
]

----------
- System: Cryptococcus neoformans
- PARTICULARS: Concentration 32 ug.mL-1; ASSAY_TEST Inhibition of Fungal Growth; detection method Resazurin; Absorption (OD600-OD570); plate type 384well; NBS; CORNING #3640
- Description: Antifungal activity against Cryptococcus neoformans H99 ATCC 208821 (CO-ADD:FG_002); MIC in YNB media using NBS plates, by Resazurin OD(600-570)
Measured potencies and affinities stand elsewhere.
Classify: 1 (yes) when Inhibition is strictly less than -10%; 0 (no) when Inhibition is not.

# MOLECULE SMILES, ANSWER LABEL
rows = [
    ("CCCCN(CC)c1ccc2nnc(CCc3nc(-c4ccc(Br)cc4)no3)n2n1", "1 (yes)"),
    ("COc1ccc(NC(=O)Cn2nc3c(SC4CCCCC4)nccn3c2=O)cc1", "1 (yes)"),
    ("COc1ccc(NC(=O)Cn2nc3cc(C)nc(Nc4cc(C)cc(C)c4)n3c2=O)cc1", "0 (no)"),
    ("Cc1cccc(C)c1NC(=O)CSc1nc2ccccc2n2c(C)nnc12", "0 (no)"),
    ("Cc1ccc(NC(=O)Cn2nc3ccc(-c4ccccc4)nn3c2=O)cc1", "1 (yes)"),
]

----------
Measured Inhibition of individual entries
- Tested on: Klebsiella pneumoniae
- PARTICULARS: Concentration 32 ug.mL-1;; ASSAY_TEST Inhibition of Bacterial Growth; detection method Absorption (OD600); MEDIA CAMHB; plate type 384well; NBS; CORNING #3640; time 18 hr
- Description: Antibacterial activity against Klebsiella pneumoniae MDR ATCC 70063 (CO-ADD:GN_003); MIC in CAMBH media using NBS plates, by OD(600)
Entries with a potency or affinity are not part of this list.
PARAMETER MEASURED: Inhibition (%)

# MOLECULE SMILES, READING UNIT, REPORTED
data = [
    ("CCOC(=O)c1ccc(NC(=O)Cn2nc3c4cc(-c5ccc(C)c(C)c5)nn4ccn3c2=O)cc1", "%", 1.25),
    ("CCc1nnc2c(S(=O)(=O)N(Cc3cccc(OC)c3)c3cccc(C)c3)cccn12", "%", 0.84),
    ("O=c1c2sccc2n2c(=O)n(Cc3ccccc3F)nc2n1CCc1ccccc1", "%", 8.76),
    ("CCCCOc1ccc(-c2cc3c4nnc(SCC(=O)Nc5ccccc5F)n4ccn3n2)cc1", "%", -0.1),
    ("Cc1cc(C)cc(N(Cc2ccc(F)cc2)S(=O)(=O)c2cccn3cnnc23)c1", "%", 7.95),
    ("Cc1ccc(-c2cc3c4nnc(CCC(=O)N5CCC(Cc6ccccc6)CC5)n4ccn3n2)cc1C", "%", 14.91),
    ("CCc1nnc2c(SCC(=O)Nc3ccc(C(=O)OC)cc3)nc3ccccc3n12", "%", 5.41),
    ("Cc1cc(C)c(NC(=O)Cn2nc3ccc(SC(C)(C)C)nn3c2=O)c(C)c1", "%", 14.36),
    ("Cc1oc(-c2ccccc2)nc1CSc1nc2ccccc2n2c(C(C)C)nnc12", "%", 2.59),
    ("CC(=O)c1ccc(NC(=O)Cn2nc3ccc(-c4ccc(C)c(C)c4)nn3c2=O)cc1", "%", 0),
]

----------
- System: Candida albicans
- PARTICULARS: Concentration 32 ug.mL-1; ASSAY_TEST Inhibition of Fungal Growth; detection method Absorption (OD530)
Potency and affinity values are given separately.
Measured Inhibition of individual entries

# MOLECULE SMILES, SYSTEM UNDER TEST, Inhibition (%)
data = [
    ("CC(C)Cn1c(=O)c2sccc2n2c(=O)n(CC(=O)NC(C)(C)C)nc12", "Candida albicans", -0.9),
    ("COc1cccc(-n2ccn3c(SCC(=O)Nc4ccc(C(C)C)cc4)nnc3c2=O)c1", "Candida albicans", 18.36),
    ("Cc1ccc(CSc2nnc3c(=O)n(-c4ccc(Br)cc4)ccn23)cc1", "Candida albicans", 8.75),
    ("O=C(Cn1nc2ccc(Sc3ccccc3)nn2c1=O)Nc1ccc(Cl)cc1", "Candida albicans", 8.96),
    ("O=C(Cn1nc2ccc(-c3ccc(Cl)cc3)nn2c1=O)N1CCN(c2ccccc2)CC1", "Candida albicans", -1.89),
    ("CCOC(=O)c1ccc(NC(=O)Cn2nc3c(N4CCOCC4)nccn3c2=O)cc1", "Candida albicans", 3.03),
    ("CCc1ccc(N(Cc2ccc(OC)cc2)S(=O)(=O)c2cccn3c(C)nnc23)cc1", "Candida albicans", 3.18),
    ("CC(C)c1nnc2c(=O)n(CC(=O)Nc3ccc(Cl)cc3)c3ccccc3n12", "Candida albicans", 3.6),
    ("CC(C)(C)OC(=O)CN(c1ccc2c(c1)OCCO2)S(=O)(=O)c1ccc2nncn2c1", "Candida albicans", 1.39),
    ("O=C(CSc1nnc2c(=O)n(-c3ccccc3)ccn12)c1c[nH]c2ccccc12", "Candida albicans", 3.09),
]

----------
- System: Klebsiella pneumoniae
- PARTICULARS: Concentration 32 ug.mL-1;; ASSAY_TEST Inhibition of Bacterial Growth; detection method Absorption (OD600); MEDIA CAMHB; plate type 384well; NBS; CORNING #3640; time 18 hr
Potency and affinity values are given separately.
Measured Inhibition of individual entries

# MOLECULE, READING UNIT, Inhibition
data = [
    ("Cc1ccc(NC(=O)Cn2nc3c(N4CCCC(C)C4)nccn3c2=O)cc1C (stereo not given)", "%", -5.74),
    ("Cc1cccc(C)c1NC(=O)Cn1c(=O)c2nnc(C(C)C)n2c2ccccc21", "%", 1.46),
    ("Cc1ccc(Sc2nccn3c(=O)n(CC(=O)Nc4ccc(F)c(Cl)c4)nc23)c(C)c1", "%", -6.57),
    ("CCOc1ccc(-n2ccn3c(SCC(=O)Nc4ccc(CC)cc4)nnc3c2=O)cc1", "%", 16.87),
    ("CCOc1ccc(-n2ccn3c(SCC(=O)NCc4ccc(Cl)cc4)nnc3c2=O)cc1", "%", 11.7),
    ("CCCCn1c(=O)c2sccc2n2c(CCC(=O)Nc3ccc(OC(F)(F)F)cc3)nnc12", "%", 7.36),
    ("CCc1nnc2c(SCC(=O)NCc3ccccc3Cl)nc3ccccc3n12", "%", 8.04),
    ("O=C(CSc1nnc2c3cc(-c4ccc(F)cc4)nn3ccn12)NCCc1ccccc1", "%", 7.72),
    ("O=c1n(Cc2cc(F)cc(F)c2)nc2ccc(-c3ccccc3)nn12", "%", 18.79),
    ("O=C(Cn1nc2c(Oc3ccccc3)nccn2c1=O)Nc1ccc(F)cc1Cl", "%", 3.51),
    ("COC(=O)c1ccc(NC(=O)Cn2nc3ccc(Sc4ccc(C)cc4)nn3c2=O)cc1", "%", 13.07),
    ("COc1cccc(-n2ccn3c(SCc4cccc(Cl)c4)nnc3c2=O)c1", "%", 8.66),
    ("CCc1nnc2ccc(S(=O)(=O)N(Cc3ccc(F)cc3)c3ccc(OC)cc3)cn12", "%", 5.94),
    ("CC(C)Cn1c(=O)c2sccc2n2c(=O)n(CC(=O)N3CCC(Cc4ccccc4)CC3)nc12", "%", -9.43),
    ("O=C(CSc1nnc2c3cc(-c4ccc(F)cc4)nn3ccn12)NCc1ccccc1", "%", 0.49),
    ("CSc1cccc(NC(=O)Cn2nc3c(Sc4cccc(F)c4)nccn3c2=O)c1", "%", 0.95),
    ("O=S(=O)(c1cccn2cnnc12)N(Cc1cccc(F)c1)c1cccc(Cl)c1", "%", 2.34),
    ("COc1cc(OC)c(NC(=O)Cn2nc3c(N4CCOCC4)nccn3c2=O)cc1Cl", "%", 1.91),
    ("O=C(CSc1nnc2c(=O)n(-c3cccc(F)c3)ccn12)Nc1ccc(Br)cc1F", "%", 15.26),
    ("Cc1ccc(-c2cc3c4nn(CC(=O)N5CCN(c6ccc(F)cc6)CC5)c(=O)n4ccn3n2)cc1C", "%", 7.51),
    ("CC(=O)Nc1ccc(NC(=O)CSc2nc3ccccc3n3cnnc23)cc1", "%", 2.19),
    ("CCCCn1c(=O)c2sccc2n2c(=O)n(CC(=O)N3CCCC(C(=O)OCC)C3)nc12 (stereo not given)", "%", -2.03),
    ("Cc1nnc2c(S(=O)(=O)N(Cc3ccccc3Cl)c3ccc(F)c(F)c3)cccn12", "%", 13.53),
    ("CC(C)CCn1c(=O)c2sccc2n2c(=O)n(CC(=O)N(C)c3ccccc3)nc12", "%", 0.74),
    ("O=c1n(Cc2nc(-c3ccc4c(c3)OCO4)no2)nc2ccc(-c3ccccc3)nn12", "%", -1.48),
    ("Cc1ccc(C)c(CSc2nnc3c(=O)n(-c4ccc(Br)cc4)ccn23)c1", "%", 7.74),
    ("Cc1cc(C)c(NC(=O)Cn2c(=O)c3nnc(C(C)C)n3c3ccccc32)c(C)c1", "%", 11.01),
    ("COc1cccc(Oc2nccn3c(=O)n(CC(=O)Nc4ccc(OC)c(Cl)c4)nc23)c1", "%", 9.28),
    ("COc1ccc(NC(=O)Cn2nc3c(Oc4ccccc4)nccn3c2=O)cc1OC", "%", 4.37),
    ("Cc1cc(C)cc(Nc2nc(C)cc3nn(CC(=O)N(C)c4cccc(C)c4)c(=O)n23)c1", "%", 7.61),
    ("O=S(=O)(c1cccn2c(SCc3c(F)cccc3Cl)nnc12)N1CCCC1", "%", 5.57),
    ("Cc1ccccc1NC(=O)Cn1nc2ccc(SC3CCCCC3)nn2c1=O", "%", 2.21),
    ("O=c1n(Cc2cccc(C(F)(F)F)c2)nc2c(S(=O)(=O)N3CCCCC3)cccn12", "%", 6.48),
    ("COC(=O)c1ccc(NC(=O)Cn2nc3ccc(SCc4ccc(Cl)cc4)nn3c2=O)cc1", "%", 3.21),
    ("O=C(Cn1nc2c(Oc3ccccc3)nccn2c1=O)Nc1ccc(Br)cc1F", "%", -1.93),
    ("CCc1ccc(N(Cc2ccccc2)S(=O)(=O)c2cccn3c(CC)nnc23)cc1", "%", 8.89),
    ("COc1ccccc1CNC(=O)Cn1nc2c(SCc3ccc(Cl)cc3)nccn2c1=O", "%", 9.05),
    ("COc1cccc(Oc2nccn3c(=O)n(CC(=O)Nc4ccc(Br)cc4F)nc23)c1", "%", 17.17),
    ("COc1ccc(NC(=O)Cn2nc3nc(Nc4ccc(F)cc4)ccn3c2=O)cc1F", "%", 11.34),
    ("CCCn1c(=O)c2sccc2n2c(CCC(=O)NCCC34CC5CC(CC(C5)C3)C4)nnc12", "%", 9.89),
]

This collection of values is drawn from ChEMBL document CHEMBL4513146.
